Source of measurements: PubChem BioAssay (NCI)

Test system: NCI-H23 lung
Test: NCI-60 one-dose screen, 48 h
Details: 10 µM unless noted
The panel holds about 83,000 compounds, 20% with a hit somewhere; the sample as a whole holds those more often. Calls of active or inactive are those of the source. Rule for the calls: active = growth percent below 10; inactive = the rest.
Your answer must be one of the following: active, inactive

1) Cc1ccc(C)c2c1sc1nc(N3CCOCC3)c(C#N)c(=O)n12	inactive
2) COC1/C=C/OC2(C)Oc3c(C)c(O)c4c(O)c(c(/C=N/N(c5ccccc5)c5ccccc5)c(O)c4c3C2=O)NC(=O)C(C)=C/C=C/C(C)C(O)C(C)C(O)C(C)C(OC(C)=O)C1C (stereo unspecified)	inactive
3) COc1ccc2c(c1)CC[C@@H]1[C@@H]2CC[C@]2(C)c3c(cc(C#N)c4c3sc3ccccc34)C[C@@H]12	inactive
4) CCCn1c(=S)sc2c(NNC(C)=O)nc(C)nc21	inactive

Exercise: Which outcome did this test record for the compound "O=c1c2ccccc2n(C[C@H]2CO2)c2ccccc12" ?
Solution: active

Exercise: Which outcome did this test record for the compound "CCN(CCNc1ccc(C)c2sc3cc(Cl)ccc3c(=O)c12)CC(C)(C)O" ?
Solution: inactive

---

System: NCI-H322M lung
Assay: NCI-60 one-dose screen, 48 h
Conditions: 10 µM unless noted
This is part of a sample that, as a whole, favours compounds with a hit. Of some 83,000 tested, about 20% had one in any assay. The source made the active and inactive calls. Rule for the calls: active = growth percent below 10; inactive = the rest.
Your answer must be one of the following: active, inactive

As a guide, the following entries are already answered.
1. CCN(CC)CCCC(Cc1ccccc1)Nc1c2ccc(Cl)cc2nc2ccc(OC)cc12 (centres undefined)	active
2. O=C(Nc1cc(Cl)ccc1O)c1ccccc1Nc1ccnc(C(F)(F)F)c1	inactive
3. Nc1cc(-c2ccc(Cl)cc2)nn1-c1nnc(/C=C/c2ccco2)c(=O)[nH]1	inactive
4. CN(C)c1ccc(/C=C2\C=C(c3nc4ccccc4s3)OC2=O)cc1	inactive
5. COc1cc(C[C@H]2COc3cc(O)cc(O)c3C2=O)ccc1O	inactive

Exercise: Which outcome did this test record for the compound "Fc1cccc(CNc2c3ccccc3nc3ccccc23)c1" ?
Solution: inactive

Exercise: Which outcome did this test record for the compound "O=c1c2ccccc2n(C[C@H]2CO2)c2ccccc12" ?
Solution: inactive

Exercise: Which outcome did this test record for the compound COc1cc(N2C(=O)[C@H](Cl)C2c2ccc(SC)cc2)cc(OC)c1OC (some centres undefined) ?
Solution: inactive

Exercise: Which outcome did this test record for the compound "CC1(C)CC[C@]2(CO)CC[C@]3(C)[C@](O)([C@H](O)C[C@@H]4[C@@]5(C)CCCNC(C)(C)[C@@H]5CC[C@]43C)[C@@H]2C1" ?
Solution: inactive

Exercise: Which outcome did this test record for the compound "Ic1ccc(Nc2nc3nonc3nc2Nc2ccc(I)cc2)cc1" ?
Solution: inactive

Exercise: Which outcome did this test record for the compound "CC(C)Cc1nc(Nc2ccccc2)[nH]c(=O)c1C#N" ?
Solution: inactive

Exercise: Which outcome did this test record for the compound C1CCC(N2CN3c4nonc4N4CN(C5CCCCC5)CN5c6nonc6N(C2)C3C45)CC1 (centres undefined) ?
Solution: inactive

Exercise: Which outcome did this test record for the compound "Nc1ncccc1O" ?
Solution: inactive

Exercise: Which outcome did this test record for the compound COc1ccc(-c2cc(C(=O)N3N=C(c4ccc(N)cc4)CC3c3ccc(Cl)cc3)c3cc(OC)ccc3n2)cc1 (centres undefined) ?
Solution: inactive
